# Tested on: SF-268
# test.summary: NCI tumour cell line growth inhibition, 48 h
Calls of active or inactive are those of the source. No stated cut-off is given here; in the data, active = GI50 up to about 1.1 µM and inactive = higher.
Form entry, call: pick from True = active, False = inactive

Before answering, review these 5 worked examples.
# compound, category
records = [
    ("O=C(O)c1nc2ccc(C(F)(F)F)cc2[nH]c1=O", "False"),
    ("C=CCn1c(=O)c(-c2ccccc2)c(O)c2ccccc21", "False"),
    ("Cc1ccc(C2(C)NC(=S)N(NC(N)=S)C2=S)cc1 (stereo unspecified)", "False"),
    ("Cc1ccc(SSCCCS(=O)O)cc1", "False"),
    ("CCOC(=O)/C=C/c1cccc(F)c1", "False"),
]

-- ask I'd appreciate the recorded outcome for CCCCCCCCCCC(C(=O)O)C1(C(=O)O)CCC(=O)O1 (stereo unspecified) from this test.
-- reply False

-- ask I'd appreciate the recorded outcome for O=C1C2=C(c3ccccc31)C(c1ccc(Cl)cc1)NC(S)=N2 (stereo unspecified) from this test.
-- reply False

-- ask I'd appreciate the recorded outcome for CCOC(=O)C(Cc1cc(OC)c(CC(C(=O)OCC)C(=O)OCC)cc1OC)C(=O)OCC from this test.
-- reply False

-- ask I'd appreciate the recorded outcome for C=C1CC(c2ccc(OCCCN3C(=O)c4ccccc4C3=O)cc2)OC1=O (stereo unspecified) from this test.
-- reply False

-- ask I'd appreciate the recorded outcome for c1ccc2c(Cc3nnc4sc(SSc5nn6c(Cc7c[nH]c8ccccc78)nnc6s5)nn34)c[nH]c2c1 from this test.
-- reply False

-- ask I'd appreciate the recorded outcome for O=C1CCC(=O)N1n1c(Cc2ccccc2)n[nH]c1=O from this test.
-- reply False

-- ask I'd appreciate the recorded outcome for O=C1CSC(c2cccc(Cl)c2)N1c1ccc(-c2ccc(-n3c(-c4ccccc4)nc4ccccc4c3=O)cc2)cc1 (stereo unspecified) from this test.
-- reply False

* * *

# Test system: SF-268
# test.summary: NCI tumour cell line growth inhibition, 48 h
The source made the active and inactive calls. No stated cut-off is given here; in the data, active = GI50 up to about 1.1 µM and inactive = higher.
measure: GI50

# molecule, measured.result
records = [
    ("Cn1cc(C(=O)c2ccccc2)cc(C(=O)c2ccccc2)c1=O", "> 100 µM (inactive)"),
    ("CCCCCCCCCCC(C)CCCCCCC(=O)O (stereo not drawn)", "> 100 µM (inactive)"),
]

Now consider the entry below.
-- ask Please list GI50 recorded for the molecule CC[S+]([O-])C(=O)N(O)c1ccc(Cl)cc1 (stereo not drawn)
-- reply 20.8 µM (inactive)

* * *

# Test system: DMS-273
# test.summary: NCI tumour cell line growth inhibition, 48 h
Active and inactive are the calls of the source. No stated cut-off is given here; in the data, active = GI50 up to about 1.1 µM and inactive = higher.
Form entry, call: pick from active, inactive

Before answering, review these 3 worked examples.
# compound, category
records = [
    ("COc1ccc(/C=N/NC(=O)NCCCN(C)C)cc1", "inactive"),
    ("Cc1c2ccnc(-c3ccccc3)c2cc2c1[nH]c1ccccc12", "active"),
    ("CC(c1cccc2ccccc12)/[N+]([O-])=C/c1ccccc1 (stereo not given)", "inactive"),
]

-- ask I'd appreciate the recorded outcome for [N-]=[N+]=CC(=O)c1ccccc1C#CCCc1ccccc1 from this test.
-- reply inactive

-- ask I'd appreciate the recorded outcome for N#CCCN(c1ccc(-c2nnc(NC(=O)CNNC(=O)CC(=O)Nc3ccccc3)s2)cc1)S(=O)(=O)c1ccccc1 from this test.
-- reply inactive

* * *

# System: MOLT-4
# test.summary: NCI tumour cell line growth inhibition, 48 h
Activity calls are given as the source filed them. Cut-off read from the data, not from the text of the source: active = GI50 up to about 1.1 µM and inactive = higher.
Form entry, call: pick from label 1 (active), label 0 (inactive)

# compound, assay.target, category
measured = [
    ("Cc1ccc(C2=Nc3c(N)nc(N)nc3NC(c3ccccc3)C2)cc1 (configuration not stated)", "MOLT-4", "label 0"),
]

--- query ---
-- ask I'd appreciate the recorded outcome for Cc1ccccc1NC(=O)Cc1csc2[n+]1C(=O)/C(=C/c1ccc([N+](=O)[O-])cc1)S2 from this test.
-- reply label 0

* * *

# System: NCI-H460
# test.summary: NCI tumour cell line growth inhibition, 48 h
The source made the active and inactive calls. Rule as the data show it: active = GI50 up to about 1.1 µM and inactive = higher.
For each of the compounds below, state its GI50.

Before answering, review these 3 worked examples.
# compound, measure, measured.result
records = [
    ("Cc1cc(S(=O)(=O)n2ccnc2Oc2ccccc2)c(SSc2cc(Cl)c(C)cc2S(=O)(=O)n2ccnc2Oc2ccccc2)cc1Cl", "GI50", "> 100 µM (inactive)"),
    ("Cc1nc(-n2nc(-c3ccccc3)cc2-c2ccccc2)sc1C(=O)/C=C/c1ccc(/C=C/C(=O)c2sc(-n3nc(-c4ccccc4)cc3-c3ccccc3)nc2C)cc1", "GI50", "29 µM (inactive)"),
    ("CCOC(=O)c1c(C)noc1/N=N/N(CCO)CCO", "GI50", "27.9 µM (inactive)"),
]

-- ask Jot down GI50 (NCI-H460) of C=C1C(=O)OC2C1C(OC(=O)/C(C)=C\C)CC1(CO1)C1C(O)C=C(C)C21O (centres undefined) .
-- reply 14.3 µM (inactive)

* * *

# System: NCI/ADR-RES
# test.summary: NCI tumour cell line growth inhibition, 48 h
Active and inactive are the calls of the source. Cut-off read from the data, not from the text of the source: active = GI50 up to about 1.1 µM and inactive = higher.
measure: GI50

# compound, GI50
rows = [
    ("CO/N=C1\\CC(C)N2C(=O)C(C(C)C)NC(=O)C(NC(=O)c3c4nc5c(C(=O)NC6C(=O)NC(C(C)C)C(=O)N7C(C)CC(O)C7C(=O)N(C)CC(=O)N(C)C(C(C)C)C(=O)OC6C)ccc(C)c5oc-4c(C)c(=O)c3N)C(CO)OC(=O)C(C)N(C)C(=O)CN(C)C(=O)C12 (stereo not given)", "16.6 µM (inactive)"),
    ("CC1(C)CC(=O)C2=C(C1)N(c1ccccc1)C1(O)C=CC(O)=C3C(=O)c4ccccc4C(=O)C321 (stereo not given)", "9.84 µM (inactive)"),
    ("COc1nc2ncc([C@@H](OC(C)=O)[C@@H](COC(C)=O)OC(C)=O)nc2c(=O)[nH]1", "> 100 µM (inactive)"),
]

The following compounds each have a reported value; give each one's GI50.
1. COC(=O)/C(C#N)=C(/NCc1ccccc1)Nc1ccccc1
2. COC(=O)C1=C(C(=O)OC)C(N(C)C)C(C(=O)OC)=C(C(=O)OC)S1

-- reply
1: 51.1 µM (inactive); 2: > 100 µM (inactive)

* * *

# Test system: SK-MEL-2
# test.summary: NCI tumour cell line growth inhibition, 48 h
The source made the active and inactive calls. Rule as the data show it: active = GI50 up to about 1.1 µM and inactive = higher.
measure: GI50

Before answering, review these 3 worked examples.
# molecule, assay.target, GI50
records = [
    ("COc1ccc(/C=C2\\C(=O)N(C(=O)Cc3ccccc3)N=C2C)cc1OC", "SK-MEL-2", "> 100 µM (inactive)"),
    ("O=C(/N=N/C(=O)OCc1ccccc1)OCc1ccccc1", "SK-MEL-2", "> 100 µM (inactive)"),
    ("C=CCNC(=O)N1CC(C)C(=O)Nc2ccccc21 (stereo unspecified)", "SK-MEL-2", "> 100 µM (inactive)"),
]

The following molecules each have a reported value; give each one's GI50.
1. COc1ccc(C(=O)C(Br)C(Br)C(=O)O)cc1 (stereo unspecified)
2. Cn1c(=O)c2c(nc3n(Cc4ccccc4)c(=O)c(Br)cn23)n(C)c1=O

-- reply
1. 39 µM (inactive)
2. > 100 µM (inactive)

-- ask Please list GI50 recorded for the molecule O=C(NNc1nc(-c2ccccc2)cs1)C(F)(F)F
-- reply 36.3 µM (inactive)

* * *

# System: SN12C
# test.summary: NCI tumour cell line growth inhibition, 48 h
Active and inactive are the calls of the source. Rule as the data show it: active = GI50 up to about 1.1 µM and inactive = higher.
Form entry, call: pick from active, inactive

Before answering, review these 5 worked examples.
# compound, category
records = [
    ("CCCC(=O)Nc1cc(/C=C/C(=O)N2CC(CCl)c3c2cc(OCc2ccccc2)c2[nH]cc(C)c32)n(C)c1 (stereo unspecified)", "active"),
    ("CC(O)CNC1=CC(=O)C(=O)c2ccccc21 (stereo unspecified)", "inactive"),
    ("O=S(=O)(C/C(=N\\O)c1ccccc1)c1ccccc1", "inactive"),
    ("O=C(O)c1nc2ccc(C(F)(F)F)cc2[nH]c1=O", "inactive"),
    ("C1CCCN(NC2=NCCO2)CC1", "inactive"),
]

-- ask I'd appreciate the recorded outcome for CC1(C)CC(=O)C2=C(C1)N(c1ccccc1)C1(O)C=CC(O)=C3C(=O)c4ccccc4C(=O)C321 (stereo unspecified) from this test.
-- reply inactive

-- ask I'd appreciate the recorded outcome for CCCCCC1CC(C(C)=O)CN1c1ccc(F)cc1 (stereo unspecified) from this test.
-- reply inactive

-- ask I'd appreciate the recorded outcome for O=C1CSC(c2cccc(Cl)c2)N1c1ccc(-c2ccc(-n3c(-c4ccccc4)nc4ccccc4c3=O)cc2)cc1 (stereo unspecified) from this test.
-- reply inactive

* * *

# Test system: CAKI-1
# test.summary: NCI tumour cell line growth inhibition, 48 h
Calls of active or inactive are those of the source. No stated cut-off is given here; in the data, active = GI50 up to about 1.1 µM and inactive = higher.
measure: GI50

Before answering, review these 2 worked examples.
# compound, GI50
records = [
    ("COc1cc(N/N=C/C#N)cc(OC)c1OC", "4.07 µM (inactive)"),
    ("Cc1cccc2c(N)c3cccc(C(=O)NCC[N+](C)(C)Cc4sccc4[N+](=O)[O-])c3nc12", "2.55 µM (inactive)"),
]

The following compounds each have a reported value; give each one's GI50.
1. CCOP(=O)(OCC)C1=NC=CC=CC1n1c(-c2ccccc2)nn(CC)c1=O (centres undefined)
2. Cc1ccc2c3c4c(ccc13)C(C)(C)OC4=C(C(C)C)C2=O
3. CC1CC/C(=C\c2ccc(F)cc2)C2=C1C(c1ccc(F)cc1)N1C(=O)CSC1=N2 (centres undefined)

-- reply
1. > 100 µM (inactive)
2. > 100 µM (inactive)
3. > 100 µM (inactive)

The following compounds each have a reported value; give each one's GI50.
1. CCCCC(C)C1CCC2(C)C=CC(=O)C(C)=C2C1O (centres undefined)
2. CCOC(=O)/C([O-])=C(\C(=O)OCC)[n+]1c(C)n(C)c2ccccc21
3. c1ccc(C[n+]2ccc3c(c2)CCCC3)cc1
4. COC(=O)/C=C/C1C(C(=O)OC)C2(C(=O)OC)CCC1(C(=O)OC)N2 (centres undefined)
5. Cc1cc(C)n(C2=NS(=O)(=O)c3ccccc3N2C)n1
6. CN(C(=O)Cc1ccccc1)n1cnn(CC(=O)OC(C)(C)C)c1=S
7. CCOC(=O)c1c(C)noc1/N=N/N(CCO)CCO
8. CC(NC(=O)C(N)CC(=O)O)NC(=O)N(C)C(C)(C)C (centres undefined)

-- reply
1: > 100 µM (inactive); 2: > 100 µM (inactive); 3: > 100 µM (inactive); 4: > 100 µM (inactive); 5: > 100 µM (inactive); 6: > 10 µM (inactive); 7: 61 µM (inactive); 8: > 100 µM (inactive)

-- ask Please list GI50 recorded for the compound CCCCn1c(N)c(-c2nc3ccccc3o2)sc1=S
-- reply 13.7 µM (inactive)
